# Assay System: Short transient receptor potential channel 4 (Mus musculus) (UniProt Q9QUQ5)
# Experiment Description: calcium flux activators in TRPC4/5HT1a cells, counter-screen for TRPC4 activator project, cell-based, second counter screen, HEK293 TRPC4/5HT1a, Fluo-4 (AID 434977);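 for activation: plate controls were assay buffer for no effect and maximal serotonin response for full effect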
# Measurement Conditions: Fluo-4 calcium flux, at 10 µM; active compounds read high
Calls of active or inactive are those of the source.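 Rule for the calls: active = calcium signal rise above buffer-control mean plus 5 SD in both duplicates, and also a hit in the primary screen; inactive = the rest.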

[
  {
    "Compound": "Clc1ccc(N2CCNCC2)nn1",
    "activation": "inactive"
  },
  {
    "Compound": "CCOC(=O)C1(CCc2ccccc2)CCN(Cc2csc(C(C)=O)c2)CC1",
    "activation": "inactive"
  },
  {
    "Compound": "CCN(CC)P(=O)(/C=C(\\Cl)c1ccccc1)/C=C(\\Cl)c1ccccc1",
    "activation": "inactive"
  },
  {
    "Compound": "Nc1cc(N2CCNCC2)ccc1[N+](=O)[O-]",
    "activation": "10.7% (active)"
  },
  {
    "Compound": "c1ccc2sc(N3CCNCC3)nc2c1",
    "activation": "51.8% (active)"
  },
  {
    "Compound": "COC(=O)C(Cc1ccc(N(CCCl)CCCl)cc1)N=Cc1ccccc1O (stereo not drawn)",
    "activation": "inactive"
  },
  {
    "Compound": "O=[N+]([O-])c1ccc(N2CCNCC2)c2ncccc12",
    "activation": "38% (active)"
  },
  {
    "Compound": "Oc1c(Br)cc(Br)cc1CN1CCN(Cc2ccccc2)CC1",
    "activation": "inactive"
  }
]
